# System: Wolbachia pipientis
# protocol description: Anti-Wolbachia Cell-Based Screen
# Assay type: functional
# Design: scale not given: in the data most compounds retested in dose-response had high values
# condition summary: 5 µM
About 13,000 (27%) of roughly 48,000 compounds showed an effect of 50% or more. Some of the results follow.
Recorded Percent Effect by entry
parameter: Percent Effect (%)

> print(dat)
                                   compound  numeric.result
1  Cn1cc(CN2CC[C@@H]3[C@@H](CO[C@H]3CNC(=O)c3ccco3)C2)cn1.O=C(O)C(F)(F)F.O=C(O)C(F)(F)F           86.49
2  O=C(NC[C@H]1OC[C@@H]2CCN(Cc3ccco3)C[C@@H]21)c1ccsc1.O=C(O)C(F)(F)F            14.6
3  CN(Cc1cccnc1)C[C@@H]1OC[C@H]2CN(Cc3ccco3)CC[C@H]21.O=C(O)C(F)(F)F.O=C(O)C(F)(F)F.O=C(O)C(F)(F)F           9.505
4  Cc1cc(C2CCCN(CCCS(N)(=O)=O)C2)n[nH]1 (stereo not drawn)             116
5  Cc1nn(CC(=O)N2CCN(Cc3cn(C)nc3C)CC2)cc1Br           147.4
6  Cc1ccc(N2CC[C@@H]3[C@@H](CO[C@H]3CNC(=O)c3ccco3)C2)nn1           1.851
7  Cc1cccc(N2CC[C@@H]3[C@@H](CO[C@H]3CNC(=O)c3ccco3)C2)n1          -1.973
8  Cn1cc(C(=O)NC[C@@H]2OC[C@H]3CN(Cc4ccco4)CC[C@H]32)cn1.O=C(O)C(F)(F)F           1.243

====

Recorded Percent Effect by entry
# Test system: Wolbachia pipientis
# protocol description: Anti-Wolbachia Cell-Based Screen
# Assay type: functional
# Design: scale not given: in the data most compounds retested in dose-response had high values
# condition summary: 5 µM
The campaign covered roughly 48,000 compounds. About 13,000 (27%) showed an effect of 50% or more. This is one part of the list.
parameter: Percent Effect (%)

> print(dat)
                                    compound  numeric.result
 1  CCS(=O)(=O)N1C[C@@H](Oc2ccccn2)[C@H]2OCCC[C@H]21.O=C(O)C(F)(F)F          -45.01
 2  CCc1csc(C2CCCN(C(=O)c3c[nH]c(C)n3)C2)n1 (stereo not given)           6.503
 3   Clc1ccccc1C1(c2ccnc(-c3ccncc3)n2)CCNCC1          -9.027
 4  CCNc1nnc(SCC(=O)N2CCN(Cc3ccc(Cl)s3)CC2)s1          -3.982
 5  CCc1csc(C2CCCN(C(=O)c3cc(C4CC4)[nH]n3)C2)n1 (stereo not given)           98.97
 6   O=C(NCCc1csc(N2CCCC2)n1)N(C1CCCC1)C1CC1          -4.119
 7            O=C(c1cccnc1O)N1CCC2(CCCO2)CC1          -3.936
 8  CCN1CCN(C(=O)CCC2CCN(C(C)CCC(=O)OC)CC2)CC1 (stereo not given)          -3.151
 9  O=C(O)C(F)(F)F.O=S(=O)(C1CC1)N1C[C@H](Oc2ccccn2)[C@H]2OCCC[C@H]21           9.296
10  CS(=O)(=O)N1CCO[C@H]2[C@@H](Oc3ncccc3F)CC[C@@H]21.O=C(O)C(F)(F)F           100.8
